Consider the following molecules; for each one, report its MRT inf.
- ASSAY: Pharmacokinetic evaluation in SD rats
- Assay type: in vivo
- CONDITION: rat, plasma; SD rats, iv, 1 mg/kg

Exam item: Please give the measured MRT inf for this molecule: `N#Cc1cc(-c2ccc(C(=O)O)c(O)c2)c2occc2c1`
Marked response: 2.84 h

Exam item: Please give the measured MRT inf for this molecule: `N#Cc1cc(-c2ccc(C(=O)O)c(O)c2)c2oc(F)cc2c1`
Marked response: 3.49 h

Exam item: Please give the measured MRT inf for this molecule: `N#Cc1cc(-c2ccc(C(=O)O)c(O)c2)c2ccccc2c1`
Marked response: 1.86 h

Exam item: Please give the measured MRT inf for this molecule: `N#Cc1cc(-c2ccc(C(=O)O)c(O)c2)c2oc(Cl)cc2c1`
Marked response: 2.42 h
